Reference source: the supplement of paper PMC7125110

B1: glmS ribozyme (parent)
chain: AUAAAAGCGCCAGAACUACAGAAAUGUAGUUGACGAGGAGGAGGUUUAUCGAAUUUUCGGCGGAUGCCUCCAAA

- Variants of: B1
- MEASUREMENT PROTOCOL: kcat; higher = faster cleavage; RNA array
- CONDITION SUMMARY: with glucosamine-6-phosphate
This sample holds only a part of the variants without activity.
MEASUREMENT TYPE: kcat (s⁻¹)
// return numeric value only (unit: s⁻¹, not printed)

Prompt: For A12C C50U , what is its reported kcat?
Completion: 0.000203
